Data provenance: the Human Domainome abundance scans (Beltran et al. 2025)

Catalogue of abundance fitness readings, one per entry.
B1: Gamma-crystallin C, residues 4 to 79; numbered along this chain, P07315 (parent)
chain: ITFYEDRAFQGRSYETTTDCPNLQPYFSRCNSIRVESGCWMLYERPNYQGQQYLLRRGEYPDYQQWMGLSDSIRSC

- Variants of: B1
- METHOD_SUMMARY: abundance fitness (aPCA) (normalised: wild type 0, dead -1); higher = more abundant; growth selection in yeast, the domain comes from the species named
- CONDITION_SUMMARY: Homo sapiens
ASSAY_READOUT: abundance fitness

>>> recorded_result("Y26P")
-0.046
>>> recorded_result("T2Q")
-0.114
>>> recorded_result("E15Q")
0.026
>>> recorded_result("P21G")
0.053
>>> recorded_result("M67C")
-0.173
>>> recorded_result("L54Y")
-0.393
>>> recorded_result("Y4K")
-0.862
>>> recorded_result("D6Q")
0.086
>>> recorded_result("D62H")
-0.106
>>> recorded_result("Q24G")
0.027
>>> recorded_result("P25H")
-0.241
>>> recorded_result("Q64A")
-0.08
>>> recorded_result("G38W")
-0.427
>>> recorded_result("P21R")
-0.131
>>> recorded_result("T16I")
-0.098
